Test system: FGFR3-TACC3_v2 (N-FLAG) fusion polypeptide
procedure text: In vitro kinase activity of FGFR3-TACC3_v2 (N-FLAG) fusion polypeptide (HTRF KinEASE-TK, peptide substrate)
Format: biochemical, human
stated conditions: final concentration 1 nM; ATP 100 μM
Mark T for Inhibition against peptide substrate FGFR3-TACC3 v2 under 20%, F if at or over.

compound	cat
COc1cc(OC)c(F)c(COc2cnc(Nc3cnn(C[C@@H](O)CO)c3)nc2)c1F	F
COc1cc(OC)c(F)c(COc2cnc(Nc3cc(CN4CCN(C)CC4)n(C)n3)nc2)c1F	T
COc1cc(OC)c(F)c(COc2cnc(Nc3ccc(N4CCN(C)CC4)cc3)nc2)c1F	F
COc1cc(CCc2cc(NC(=O)c3ccc(N4C[C@@H](C)N[C@@H](C)C4)cc3)[nH]n2)cc(OC)c1	T
C[C@@H](Oc1ccc2[nH]nc(/C=C/c3cnn(CCO)c3)c2c1)c1c(Cl)cncc1Cl [LY2874455, reference compound]	F
CCN1CCN(c2ccc(Nc3cc(N(C)C(=O)Nc4c(Cl)c(OC)cc(OC)c4Cl)ncn3)cc2)CC1	T

----------
Tested on: FGFR3-TACC3_v3 (N-FLAG) fusion polypeptide
procedure text: In vitro kinase activity of FGFR3-TACC3_v3 (N-FLAG) fusion polypeptide (HTRF KinEASE-TK, peptide substrate)
Type: biochemical, human
stated conditions: final concentration 1 nM; ATP 100 μM
Label 0 (no) if Inhibition against peptide substrate FGFR3-TACC3 v3 falls below 40%; label 1 (yes) in every other case.

molecule	cat
C[C@@H](Oc1ccc2[nH]nc(/C=C/c3cnn(CCO)c3)c2c1)c1c(Cl)cncc1Cl [LY2874455, reference compound]	1 (yes)
COc1cc(OC)c(F)c(COc2cnc(Nc3ccc(N4CCN(C)CC4)cc3)nc2)c1F	1 (yes)
CCN1CCN(c2ccc(Nc3cc(N(C)C(=O)Nc4c(Cl)c(OC)cc(OC)c4Cl)ncn3)cc2)CC1	0 (no)
COc1cc(OC)c(F)c(COc2cnc(Nc3cc(CN4CCN(C)CC4)n(C)n3)nc2)c1F	0 (no)
COc1cc(CCc2cc(NC(=O)c3ccc(N4C[C@@H](C)N[C@@H](C)C4)cc3)[nH]n2)cc(OC)c1	0 (no)

----------
Test system: FGFR3-TACC3_v3 (N-FLAG) fusion polypeptide
procedure text: In vitro kinase activity of FGFR3-TACC3_v3 (N-FLAG) fusion polypeptide (HTRF KinEASE-TK, peptide substrate)
Type: biochemical, human
stated conditions: final concentration 100 nM; ATP 100 μM
Below, each entry is listed with its recorded Inhibition against peptide substrate FGFR3-TACC3 v3.
quantity: Inhibition against peptide substrate FGFR3-TACC3 v3 (%)

sample smiles	assayed target	experimental value
COc1cc(OC)c(F)c(COc2cnc(Nc3ccc(N4CCN(C)CC4)cc3)nc2)c1F	FGFR3-TACC3_v3 (N-FLAG) fusion polypeptide	97
COc1cc(OC)c(F)c(COc2cnc(Nc3cc(CN4CCN(C)CC4)n(C)n3)nc2)c1F	FGFR3-TACC3_v3 (N-FLAG) fusion polypeptide	91
CCN1CCN(c2ccc(Nc3cc(N(C)C(=O)Nc4c(Cl)c(OC)cc(OC)c4Cl)ncn3)cc2)CC1	FGFR3-TACC3_v3 (N-FLAG) fusion polypeptide	75
COc1cc(OC)c(F)c(COc2cnc(Nc3cnn(C[C@@H](O)CO)c3)nc2)c1F	FGFR3-TACC3_v3 (N-FLAG) fusion polypeptide	96
COc1cc(CCc2cc(NC(=O)c3ccc(N4C[C@@H](C)N[C@@H](C)C4)cc3)[nH]n2)cc(OC)c1	FGFR3-TACC3_v3 (N-FLAG) fusion polypeptide	74
